Listing: Log10LC50 of selected compounds
Tested on: T-47D
Assay: NCI 60 cell line panel screen (SRB)
Type: cell-based, human
Conditions: T-47D (Breast Cancer); LC50: PG=−50

Query (compound): C[C@@H]1CC[C@H]2[C@@H](C)C(CC(O)(CC3OC4O[C@]5(C)CC[C@H]6[C@H](C)CC[C@@H]([C@H]3C)C46OO5)c3ccc(C(=O)O)cc3)OC3O[C@]4(C)CCC1C32OO4 (some centres unmarked) [Compound 11b] ; field requested: Log10LC50
>−4.30 log10M

Request: C[C@@H]1CC[C@H]2[C@@H](C)C(=O)O[C@@H]3O[C@]4(C)CC[C@@H]1[C@]32OO4
>−4.00 log10M

Can you handle CC1CCC2C(C)C(CC(O)(CC3OC4OC5(C)CCC6C(C)CCC(C3C)C46OO5)CS(=O)(=O)c3ccc(C(=O)O)cc3)OC3OC4(C)CCC1C32OO4 (centres unmarked) [Compound 10c] next?
>−4.30 log10M

Moving on to CC1CCC2C(C)C(CC(COC(=O)CCC(=O)O)CC3OC4OC5(C)CCC6C(C)CCC(C3C)C46OO5)OC3OC4(C)CCC1C32OO4 (centres unmarked) [Compound 8a, bis-trioxane primary succinate monoester]
>−4.30 log10M

Okay, next one:
Look up Log10LC50 for this compound: CC1CCC2C(C)C(CC(COC(=O)c3cc[n+]([O-])cc3)CC3OC4OC5(C)CCC6C(C)CCC(C3C)C46OO5)OC3OC4(C)CCC1C32OO4 (centres unmarked)
>−4.30 log10M

====

Test system: NCI-H226
Assay: NCI 60 cell line panel screen (SRB)
Type: cell-based, human
Conditions: Non-Small Cell Lung Cancer, NCI-H226
PROPERTY MEASURED: Log10GI50
Write the number on its own, no unit after it.

Data request, read-out Log10GI50, for CC1CCC2C(C)C(CC(CO)CC3OC4OC5(C)CCC6C(C)CCC(C3C)C46OO5)OC3OC4(C)CCC1C32OO4 (centres unmarked)
−4.82

Lookup CC1CCC2C(C)C(CC(O)(CO)CC3OC4OC5(C)CCC6C(C)CCC(C3C)C46OO5)OC3OC4(C)CCC1C32OO4 (centres unmarked)
−4.87

====

Below, each entry is listed with its recorded Log10LC50.
Test system: MDA-MB231/ATCC
Assay: NCI 60 cell line panel screen (SRB)
Format: cell-based, human
Details: MDA-MB231/ATCC (Breast Cancer); LC50: PG=−50
All answers are understood in log10M, so give the number only.

Use these answered entries as a reference point.
Query (compound): CC1CCC2C(C)C(CC(O)(CC3OC4OC5(C)CCC6C(C)CCC(C3C)C46OO5)CS(=O)(=O)c3ccc(C(=O)O)cc3)OC3OC4(C)CCC1C32OO4 (stereo not drawn) [Compound 10c] ; field requested: Log10LC50
−5.02

Can you handle CC1CCC2C(C)C(CC(COC(=O)c3cc[n+]([O-])cc3)CC3OC4OC5(C)CCC6C(C)CCC(C3C)C46OO5)OC3OC4(C)CCC1C32OO4 (stereo not drawn) [Compound 13] next?
−4.77

Continue with the compound presented below.
Data request, read-out Log10LC50, for CC1CCC2C(C)C(CC(O)(CO)CC3OC4OC5(C)CCC6C(C)CCC(C3C)C46OO5)OC3OC4(C)CCC1C32OO4 (stereo not drawn) [Compound 5, bis-trioxane vicinal diol]
−4.15

====

Test system: TK-10
Assay: NCI 60 cell line panel screen (SRB)
Format: cell-based, human
Conditions: Renal Cancer, TK-10
PROPERTY MEASURED: Log10GI50
Reply briefly: the number, and no unit.

Examples with answers:
Return Log10GI50 measured with TK-10 given this compound: CC(=O)O[C@H]1C(=O)[C@@]2(C)[C@H]([C@H](OC(=O)c3ccccc3)[C@]3(O)C[C@H](OC(=O)[C@H](O)[C@@H](NC(=O)c4ccccc4)c4ccccc4)C(C)=C1C3(C)C)[C@]1(OC(C)=O)CO[C@@H]1C[C@@H]2O [Paclitaxel, paclitaxel, reference compound]
−7.89

Same for CC1CCC2C(C)C(CC(COC(=O)CCC(=O)O)CC3OC4OC5(C)CCC6C(C)CCC(C3C)C46OO5)OC3OC4(C)CCC1C32OO4 (stereo not shown) [Compound 8a, bis-trioxane primary succinate monoester]
−6.92

Now examine the next entry.
Record CC1CCC2C(C)C(CC(CO)CC3OC4OC5(C)CCC6C(C)CCC(C3C)C46OO5)OC3OC4(C)CCC1C32OO4 (stereo not shown) [Compound 4, bis-trioxane primary alcohol] : what is its Log10GI50 with TK-10?
−6.60

====

Tested on: UACC-257
Experiment: NCI 60 cell line panel screen (SRB)
Type: cell-based, human
Conditions: UACC-257 (Melanoma); LC50: PG=−50
Parameter: Log10LC50. Scope: all listed entries.

So what's the measured Log10LC50 for this one? CC1CCC2C(C)C(CC(O)(CO)CC3OC4OC5(C)CCC6C(C)CCC(C3C)C46OO5)OC3OC4(C)CCC1C32OO4 (stereo not drawn) [Compound 5, bis-trioxane vicinal diol]
−4.36 log10M

Would you mind doing CC1CCC2C(C)C(CC(O)(CC3OC4OC5(C)CCC6C(C)CCC(C3C)C46OO5)CS(=O)(=O)c3ccc(C(=O)O)cc3)OC3OC4(C)CCC1C32OO4 (stereo not drawn) [Compound 10c] as well?
>−4.30 log10M

Can you check C[C@@H]1CC[C@H]2[C@@H](C)C(=O)O[C@@H]3O[C@]4(C)CC[C@@H]1[C@]32OO4 [Artemisinin] next?
>−4.00 log10M

====

Test system: UO-31
Assay: NCI 60 cell line panel screen (SRB)
Type: cell-based, human
Conditions: UO-31 (Renal Cancer); LC50: PG=−50
Quick reference for Log10LC50 among some molecules

Worked set:
Would you mind telling me what Log10LC50 value was observed for CC1CCC2C(C)C(CC(O)(CC3OC4OC5(C)CCC6C(C)CCC(C3C)C46OO5)CS(=O)(=O)c3ccc(C(=O)O)cc3)OC3OC4(C)CCC1C32OO4 (centres unmarked) [Compound 10c] ?
>−4.30 log10M

Now the same for CC1CCC2C(C)C(CC(COC(=O)CCC(=O)O)CC3OC4OC5(C)CCC6C(C)CCC(C3C)C46OO5)OC3OC4(C)CCC1C32OO4 (centres unmarked) [Compound 8a, bis-trioxane primary succinate monoester]
>−4.30 log10M

Lookup CC1CCC2C(C)C(CC(COC(=O)c3cc[n+]([O-])cc3)CC3OC4OC5(C)CCC6C(C)CCC(C3C)C46OO5)OC3OC4(C)CCC1C32OO4 (centres unmarked)
>−4.30 log10M

Would you kindly repeat that for C[C@@H]1CC[C@H]2[C@@H](C)C(CC(O)(COC(=O)CCC(=O)O)CC3OC4O[C@]5(C)CC[C@H]6[C@H](C)CC[C@@H]([C@H]3C)C46OO5)OC3O[C@]4(C)CCC1C32OO4 (some centres unmarked) [Compound 9, tertiary alcohol primary succinate ester] ?
>−4.30 log10M

And CC1CCC2C(C)C(CC(CO)CC3OC4OC5(C)CCC6C(C)CCC(C3C)C46OO5)OC3OC4(C)CCC1C32OO4 (centres unmarked) ?
−5.14 log10M

Also, C[C@@H]1CC[C@H]2[C@@H](C)C(=O)O[C@@H]3O[C@]4(C)CC[C@@H]1[C@]32OO4 please.
>−4.00 log10M

Now consider C[C@@H]1CC[C@H]2[C@@H](C)C(CC(O)(CC3OC4O[C@]5(C)CC[C@H]6[C@H](C)CC[C@@H]([C@H]3C)C46OO5)c3ccc(C(=O)O)cc3)OC3O[C@]4(C)CCC1C32OO4 (some centres unmarked) [Compound 11b] .
>−4.30 log10M

Others:
Can you share its Log10LC50? I mean this molecule: CC1CCC2C(C)C(CC(O)(CO)CC3OC4OC5(C)CCC6C(C)CCC(C3C)C46OO5)OC3OC4(C)CCC1C32OO4 (centres unmarked)
−4.26 log10M

====

System: U251
Assay: NCI 60 cell line panel screen (SRB)
Assay type: cell-based, human
Conditions: U251 (CNS Cancer); TGI: PG=0
Quick rule for you: Log10TGI50 under -5 log10M gets Met, anything else gets Not met.

Example entries begin here.
Record C[C@@H]1CC[C@H]2[C@@H](C)C(CC(O)(COC(=O)CCC(=O)O)CC3OC4O[C@]5(C)CC[C@H]6[C@H](C)CC[C@@H]([C@H]3C)C46OO5)OC3O[C@]4(C)CCC1C32OO4 (stereo partly drawn) [Compound 9, tertiary alcohol primary succinate ester] : is its Log10TGI50 strictly below -5 log10M?
Not met

Would you mind doing C[C@@H]1CC[C@H]2[C@@H](C)C(=O)O[C@@H]3O[C@]4(C)CC[C@@H]1[C@]32OO4 as well?
Not met

How about CC1CCC2C(C)C(CC(O)(CO)CC3OC4OC5(C)CCC6C(C)CCC(C3C)C46OO5)OC3OC4(C)CCC1C32OO4 (stereo not drawn) ?
Not met

And C[C@@H]1CC[C@H]2[C@@H](C)C(CC(O)(CC3OC4O[C@]5(C)CC[C@H]6[C@H](C)CC[C@@H]([C@H]3C)C46OO5)c3ccc(C(=O)O)cc3)OC3O[C@]4(C)CCC1C32OO4 (stereo partly drawn) [Compound 11b] ?
Met

New cases:
Please state whether Log10TGI50 is below -5 log10M for CC1CCC2C(C)C(CC(CO)CC3OC4OC5(C)CCC6C(C)CCC(C3C)C46OO5)OC3OC4(C)CCC1C32OO4 (stereo not drawn)
Not met

Same question for CC1CCC2C(C)C(CC(COC(=O)CCC(=O)O)CC3OC4OC5(C)CCC6C(C)CCC(C3C)C46OO5)OC3OC4(C)CCC1C32OO4 (stereo not drawn) [Compound 8a, bis-trioxane primary succinate monoester] please.
Not met

Cool, now CC(=O)O[C@H]1C(=O)[C@@]2(C)[C@H]([C@H](OC(=O)c3ccccc3)[C@]3(O)C[C@H](OC(=O)[C@H](O)[C@@H](NC(=O)c4ccccc4)c4ccccc4)C(C)=C1C3(C)C)[C@]1(OC(C)=O)CO[C@@H]1C[C@@H]2O [Paclitaxel, paclitaxel, reference compound]
Not met

Next up: CC1CCC2C(C)C(CC(O)(CC3OC4OC5(C)CCC6C(C)CCC(C3C)C46OO5)CS(=O)(=O)c3ccc(C(=O)O)cc3)OC3OC4(C)CCC1C32OO4 (stereo not drawn) [Compound 10c]
Met

FYI, the data here is from patent US7417156B2.
